Each entry below lists one item and its recorded Mouse Osteoblast-line Cell Proliferation [Expressed as a Percent of Control] value.
# Test system: Mouse osteoblastic-line cells (MC3T3-El)
# PROTOCOL_SUMMARY: Mouse Osteoblast-line Cell Proliferation (3H-thymidine)
# Type: cell-based
# EXPERIMENTAL_SETUP: 0.1 μM; 0.1% FBS
Counter-ions that a name gives are not always drawn.
ENDPOINT_NAME: Mouse Osteoblast-line Cell Proliferation [Expressed as a Percent of Control]

COMPOUND: CCc1ccc(NCCS(=O)(=O)F)cc1 [Example 25, Monohydrochloride]
RESULT: 100.9% of Control
//
COMPOUND: COc1ccc(CCN(C)CCS(=O)(=O)F)cc1OC
RESULT: 153.5% of Control
//
COMPOUND: Cc1ccc(NCCS(=O)(=O)F)cc1
RESULT: 126.6% of Control
//
COMPOUND: CC(C)c1ccc(NCCS(=O)(=O)F)cc1 [Example 27, Hydrate]
RESULT: 106.9% of Control
//
COMPOUND: CCCCc1ccc(NCCS(=O)(=O)F)cc1 [Example 19, Monohydrochloride]
RESULT: 159.8% of Control
//
COMPOUND: COc1ccc(NCCS(=O)(=O)F)cc1OC [Example 22, Monohydrochloride]
RESULT: 116.4% of Control
//
COMPOUND: O=S(=O)(F)CCNc1ccccc1 [Example 18, Monohydrochloride]
RESULT: 108.1% of Control
//
COMPOUND: O=S(=O)(F)CCNc1ccc(F)cc1 [Example 20, Monohydrochloride]
RESULT: 110.2% of Control
//
COMPOUND: COc1cc(NCCS(=O)(=O)F)c(C(C)=O)cc1OC
RESULT: 125.3% of Control
//
COMPOUND: O=S(=O)(F)CCNc1ccc(C(F)(F)F)cc1
RESULT: 107.3% of Control
//
COMPOUND: CC(C)(C)c1ccc(NCCS(=O)(=O)F)cc1 [Example 26, Hydrate]
RESULT: 89.9% of Control
//
COMPOUND: O=S(=O)(F)CCNc1ccc(Cl)cc1
RESULT: 123.5% of Control
//
COMPOUND: CCOC(=O)c1ccc(NCCS(=O)(=O)F)cc1
RESULT: 127.5% of Control
//
COMPOUND: COc1ccc(NCCS(=O)(=O)F)cc1 [Example 17, Monohydrochloride]
RESULT: 129.1% of Control

Numbers sourced from patent US5112866A.
